- method: TLR3 IRF3 reporter activation blockers – cell-based, poly I:C stimulus, luciferase, 10K MLSCN set, primary screen (AID 602277)
- conditions: HEK293-TLR3 RL24 IRF3 luciferase reporter, at 10 µM
The source made the active and inactive calls.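 How the source made its calls: active means inhibition of the reporter signal at or above 50%; inactive means inhibition below 50%.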
Outcome codes: Yes for active, No for inactive

> print(dat)
                                    molecule  assigned.class
 1              CC(C)(C)c1nc(CN2CCOCC2)ccc1O              No
 2  COC(=O)c1ccc(C2C(C#N)=C(N)Oc3cc(C)n(C)c(=O)c32)cc1 (stereo unspecified)              No
 3  COC(=O)C1=C(C)Nc2ncnn2C1c1ccc(C)o1 (stereo unspecified)              No
 4  Nc1ccc(-n2c(N)c(C(=O)NCc3ccc4c(c3)OCO4)c3nc4ccccc4nc32)cc1              No
 5  Cc1ccc(S(=O)(=O)N2CCCN(S(=O)(=O)C3CCS(=O)(=O)C3)CC2)cc1 (stereo unspecified)              No
 6     CCOc1ccc(NC(=O)COC(=O)Cn2cnnn2)cc1OCC              No
 7  CCOC(=O)n1c(=O)oc2cc(S(=O)(=O)N3CCCCC3)ccc21              No
 8  COc1cccc(Nc2nnc(SCC(=O)N3CC(C)OC(C)C3)s2)c1 (stereo unspecified)              No
 9                        COC(=O)Cc1csc(N)n1              No
10      CCCNC(=O)Nc1ccccc1C(=O)Nc1ccc(OC)cc1              No
11  O=C(Nc1ccccc1-c1nc2ccccc2o1)c1ccc2c(c1)OCCO2              No
12           CC1(C)CC(=O)C=C(Nc2ccc(F)cc2)C1              No
13  COc1cccc(N2CCN(CC(=O)c3c[nH]c4ccc(OC)cc34)CC2C)c1 (stereo unspecified)              No
14  COCCn1c(CN2CCN(c3ccccc3F)CC2)nc2c1c(=O)n(C)c(=O)n2C              No
15  CCc1ccc2[nH]c(=O)c(C(c3nnnn3CC3CCCO3)N3CCN4CCCC4C3)cc2c1 (stereo unspecified)              No
16  Cc1cc(C)n(CCCNC(=O)c2ccc3c(c2)NC(=O)CS3)n1              No
17  O=C(CSc1nnc(-c2cccs2)o1)NCC1CN(Cc2ccccc2)CCO1 (stereo unspecified)              No
18          CC(C)(C)NC(=O)COC(=O)c1ccc(O)cc1              No
19  COc1ccc(-n2c(N)c(C(=O)NCc3ccco3)c3nc4ccccc4nc32)c(OC)c1              No
20  COC(=O)C1CCN(C(=O)CN2C(=O)NC(CCc3ccccc3)C2=O)CC1 (stereo unspecified)              No
21  CSc1nnc(-c2nnc(SC)n2-c2ccccc2)n1-c1ccccc1              No
22  CC(C)(C)c1cc(NS(=O)(=O)c2ccc3c(c2)OCCO3)on1              No
23               C/C(NC1CCCC1)=C(/C#N)C(N)=O              No
24  CCC(c1nnc(SCC(=O)Nc2ccc(C(=O)Nc3ccccc3OC)cc2)o1)N(C)C (stereo unspecified)             Yes
25     CS(=O)(=O)Nc1ccc(C(=O)NCCc2ccccc2)cc1              No
26  O=C(CN1CCN(Cc2ccc3c(c2)OCO3)CC1)N1CCc2[nH]c3ccc(F)cc3c2C1              No
27                CC(=O)Nc1sc2c(c1C#N)CCCCC2              No
28  O=C(CSc1nnc(-c2ccco2)n1CC1CCCO1)N1CCCCC1 (stereo unspecified)              No
29  Cc1ccc(CS(=O)(=O)CCC(=O)NCC2CCCO2)cc1 (stereo unspecified)              No
30                CCCC(=O)Nc1ccccc1NC(=O)CCC              No
31  Cn1c(=O)c2c(nc(SCC(=O)N3CCCc4ccccc43)n2C)n(C)c1=O              No
32   O=C(NCc1ccccc1)N[C@@H](Cc1ccccc1)C(=O)O              No
33  COc1cc(=O)[nH]c(SCc2c(F)c(F)c(F)c(F)c2F)n1              No
34                  C=CCNC(=O)c1ccc(Cl)cc1Cl              No
35  CC(C)OC(=O)c1cc(NC(=O)C2C3CCC(O3)C2C(=O)O)cc(C(=O)OC(C)C)c1 (stereo unspecified)              No
36  CCOc1ccccc1N1C(=O)c2ccc(C(=O)Nc3cccnc3)cc2C1=O              No
37  CCOC(=O)c1c(C)c(C(=O)NCC2CCCO2)c(C)n1C (stereo unspecified)              No
38  COCCn1c(=O)[nH]c2cc(C(=O)N3CCN(c4ccccc4OC)CC3)ccc2c1=O              No
39  COc1cccc(CN(C(=O)c2cc3ccccc3oc2=O)C2CC2)c1              No
40  COc1ccc(S(=O)(=O)N(C)CC(=O)N2CCCCC2)cc1Cl              No
41        Fc1cccc2sc(Nc3nnc(-c4ccco4)o3)nc12              No
42  O=C(c1cccc2c1C(=O)N(Cc1cccnc1)C2)N1CCN(c2ccccc2)CC1              No
43  Cc1occc1-c1nnc(SCC(=O)N2CCOCC2)n1Cc1ccco1              No
44  COc1ccc(C(NC(=O)c2ccco2)c2ccc(OC)c(OC)c2)cc1 (stereo unspecified)              No
45     O=C(COc1ccc(Cl)cc1)Nc1nc(-c2cccs2)cs1              No
46  COc1ccccc1CC(=O)NCC1CCCO1 (stereo unspecified)              No

# credit: PubChem BioAssay
